Values were extracted from patent US9670220B2.

Study target: human S1P1 receptor (Homo sapiens (Human), UniProt P21453)
Sequence (P21453 whole entry): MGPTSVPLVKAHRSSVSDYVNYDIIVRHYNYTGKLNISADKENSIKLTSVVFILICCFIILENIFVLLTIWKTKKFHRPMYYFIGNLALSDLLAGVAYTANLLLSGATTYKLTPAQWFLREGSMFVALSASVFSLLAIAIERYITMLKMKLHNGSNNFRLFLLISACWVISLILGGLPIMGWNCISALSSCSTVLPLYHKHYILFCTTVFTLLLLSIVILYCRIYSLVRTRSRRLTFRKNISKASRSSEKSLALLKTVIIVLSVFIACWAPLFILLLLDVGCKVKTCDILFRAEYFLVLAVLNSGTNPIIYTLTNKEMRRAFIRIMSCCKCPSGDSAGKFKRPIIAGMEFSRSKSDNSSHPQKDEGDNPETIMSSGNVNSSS
Assay comment: In vitro functional activity (agonism) on human S1P1 receptors (method B), CHO-K1-human S1P1 cAMP assay
Assay type: cell-based
Condition details: determined using method B (cAMP, forskolin)
Give measured S1P1^B pEC50 for each item. Keep answers brief.

Query :: Query S1P1^B pEC50 for O=C(O)CCN1CCc2oc(-c3ccc(OCc4ccccc4)cc3)nc2C1 [Compound 47]
Result :: <5.5

Query :: Query S1P1^B pEC50 for O=C(O)CCCN1CCc2oc(-c3ccc(OCc4cccc(F)c4F)cc3)nc2C1 [Compound 57]
Result :: <5.5

Query :: Query S1P1^B pEC50 for O=C(O)CCCN1CCc2oc(-c3ccc(OCc4ccc(C(F)(F)F)cc4)cc3F)nc2C1 [Compound 85]
Result :: <5.5

Query :: Query S1P1^B pEC50 for CC(CC(=O)O)N1CCc2oc(-c3ccc(OCc4cccc(F)c4F)cc3)nc2C1 (stereo not shown) [Compound 175]
Result :: <5.5
